# Tested on: MS2 coat protein
# procedure details: apparent KD of MS2 coat protein; higher = weaker reporter binding
# stated conditions: Eterna round: R107; input ligand: none
experimental endpoint: apparent KD of MS2 coat protein (µM)

UGAAAGUAGGGAAGGAGCGCUACAACAUGAGGAUCACCCAUGUAAUGAGGAUCACCCAUGUGGCAGGUAGGUCGCCCAAAACAUG [#14 Same State - Arginine B] = 0.167
UUAUGAUGUUCCGAUACCAGCCAUGUAGUUCUAACUUAACAUGAGGAUCACCCAUGUACCGGCCCUUGGCAGCGGAUGUGGAUUA [#22Same State - Theophylline B] = 0.0234
ACGAUAGGACUUGAGGAACACCCAAGUGAUACCAGCCUGGAAACAGGCCCUUGGCAGCACUAAUACUCCAAUAACCUAUCGAAUA [TheoAX 15 #MicroSwitchBubble #AlternativeMS2] = 0.212
UGUAUGUGAUCUGAUACCAGAGUUGAUAAUCUGAGGAUCACCCUGGUAAGGCGAAAGCCACUCCCUUGGCAGCAGAUCGCAUACU = 0.306
GACCGAUUAUAGUGCGAUUGUCUUGUGGAAGGAGCGCAGAGGACUGCAGGUAGGUCGCCACAUGAGGAUCACCCAUGUCAGGAUU [Reinorlaan] = 0.046
AGUAACAUGAGGAUCACCCAUGUAUGAGAAGGAGCGUGUUUUAACACAGGUAGGUCGCUCAAUAUUAUUUACUAGCGAAAGCUAG [JR_SSArginiA_Sub007] = 0.0146

###

# Tested on: MS2 coat protein
# procedure details: apparent KD of MS2 coat protein; higher = weaker reporter binding
# stated conditions: Eterna round: R107; input ligand: arginine 13.2 mM
Item-by-item account of apparent KD of MS2 coat protein
experimental endpoint: apparent KD of MS2 coat protein

ACGGAUCGGAAACGAUCCGCGGCUAGGGUGCGAGGACCGGUACGGCCGCCACUCGGGUAACAUGAGGAUCACCCAUGUCCGAUUU [ETA NP+V+V2 #13 Same Structure] = 0.0364 µM
GCUGCCAUACGAAGGAGCGCUGCUGCGAUGUGGCGAACAUGAGGAUCACCCAUGUGGCAGCAGCAGGUAGGUCGCGUAUGGCAGC [#01 Exclusion - Arginine B] = 0.131 µM
AAUACCGGUCCUCGAAGUGAUCCUCAUGAACGAGGACCGGUACGGCCGCCACUCGAUAACAUGAGGAUCACCCAUGUAAUAAUAA [|T'-M'-Trp-Ms2|_Design4] = 0.0728 µM
AGUAACAUGAGGAUCACCCAUGUAUGAGAAGGAGCGUGUUUUAACACAGGUAGGUCGCUCAAUAUUAUUUACUAGCGAAAGCUAG [JR_SSArginiA_Sub007] = 0.022 µM
GGUGGCGUGACGGAUACCAGCCACCGCCGCAAGGCAACAUGAGGAUCACCCAUGUUGGGUGGCCCUUGGCAGCUGUCGUGCGGCG [#1 Same State - Theophylline B Attempt #22 (HarryS)] = 0.0133 µM
AUAUUAAUCGGAAGGAGCGGUACAUGAGGAUCACCCAUGUGUGAAGCGAGCAGAUCCCGUUACCAGGUAGGUCGCCGAGUUAUGA [XArg-B6] = 0.0854 µM

###

# Tested on: MS2 coat protein
# procedure details: apparent KD of MS2 coat protein, switch ON state; designed switch direction (-1 OFF switch, 1 ON switch): -1; higher = weaker reporter binding
# stated conditions: FMN input: 0 or 200 uM; Eterna round: R93 (includes R88 designs)
apparent KD of MS2 coat protein: recorded values
experimental endpoint: apparent KD of MS2 coat protein (nM)

AAAAAUGGAGGAUAUACAUGAGGAUCACCCAUGUGAAACAAAAAAAAAAACAAAAAAAGUAGAAGGCCAAAAAA [Gilly Gone Silly 2 - Jieux - Exclusion 3] = 36.7
AAACGUAGAGGAUAUACAGGGCUAUUACGAAAGUAAUAGAAACAUGAGGAUCACCCAUGUAGAAGGCUACGAAA [Mod2 of Meechl 64% 1] = 162
AAGAAGACAGGAUAUACAUGAAAGAAAGAAAAGAAAAGAAAACAUGAGGAUCACCCAUGUAGAAGGGUCAAGAA [EteRNA is fun!] = 23.5
GAGGCUGAAGGAUAUACAAGGGCCUCACCGCCAAAACGGAAACAUGAGGAUCACCCAUGUAGAAGGUCAAUAAA [Reisvexe] = 57.1
AAAAAACAUGAGGAUCACCCAUGUGAGGAUAUGCUAAAAAAAUCCGCAUGAAAAAAUAGCAGAAGGCACAUAAA [PK2] = 29.6
AGAACACAUGAGGAUCACCCAUGUCAGGAUAUUCAAACAAAAACAAAACAAAACAAACGAAGAAGGGACAAAAG [May 2] = 32.3

###

# System: MS2 coat protein
# procedure details: apparent KD of MS2 coat protein; designed switch direction (-1 OFF switch, 1 ON switch): -1; higher = weaker reporter binding
# stated conditions: input ligand: FMN 200 uM
Label true when apparent KD of MS2 coat protein is at or above 40 nM; anything below gets false.

CCGCUCCGUGUAGGAUAUCGGUGUACCCUGCGCCGAGAAGGACAUGAGGAUCACCCAUGUAUGUUAUUAUCACGCGUGGCGCAC [Design 73] (Eterna round: R96, puzzle: Exclusion NG 1) = false
AUUUGCACGCUGCGGUCCUACAUGAGGAUCACCCAUGUGGUCUGGUGGCGUGGGUCGCCGGACUUGGCUCGUCUUGG [salish99_S_TOV1_R5_034] (Eterna round: R97, puzzle: Sensor, turn-off variant 1) = false
CGUCUGUAAGGAUAUGGUAGCAUUUACAUGAGGAUCACCCAUGUUACAUGGGACUAGUGAUUAGAAGGUACGAACG [EX5 #55] (Eterna round: R97, puzzle: Exclusion 5) = true
GCACAGGCAGGAUAUACAUGAGGAUCACCCAUGUGAUCCCUUAGGUACAAAAGUACAAGUAGAAGGGCCUGUGC [Omei Ex3 Model Bachelor's Dilema v45] (Eterna round: R97, puzzle: Exclusion 3) = true
GGAGGAGAGGUAAGGAUAUGGUGGUGGAAACACCACCAGAAGGUACAUGAGGAUCACCCAUGUAAGGAAGGAGG [AK-MS2ROC-r4-Bmoexclusion4-17.1] (Eterna round: R97, puzzle: Brourd's mod of Exclusion 4) = false
UUGCUCGUCUUGCUUCCUAACAUGAGGAUCACCCAUGUCGACGGUGAGACGCAAGAGCCAUCUCGCCGUUGAUCGUC [Eternabot (Original) Solution 4] (Eterna round: R97, puzzle: Sensor, turn-off variant 1) = true
GUUGUUGCGCAGGAUAUCCAGCGACUUGUCGAAGGAGAAGGGCGCACAUGAGGAUCACCCAUGUGCCUCUGUAA [EX6 B.20] (Eterna round: R97, puzzle: Exclusion 6) = true
ACAUGAGGAUCACCCAUGUGAAACCAAUGGCUGACUUUGAGCUAGGAUAUUCGUGCAUAUCAAACGAAGAAGGAGCAUUACUGG [Deportation 97 - Jieux - Exclusion NG 3] (Eterna round: R96, puzzle: Exclusion NG 3) = false
GUGGUUCCUGUCAGGAUAUACGCGGACCACCACCUGUAGAAGGGACAUGAGGAUCACCCAUGUUUUCCAAAGCG [Eternabot (L2) Solution 80] (Eterna round: R97, puzzle: Brourd's mod of Exclusion 4) = false

###

// values below are reported apparent KD of MS2 coat protein
# System: MS2 coat protein
# procedure details: apparent KD of MS2 coat protein; designed switch direction (-1 OFF switch, 1 ON switch): 1; higher = weaker reporter binding
# stated conditions: Eterna round: R95; input ligand: FMN 200 uM
experimental endpoint: apparent KD of MS2 coat protein (nM)

UAUAAACAUGAGGAUCACCCAUGUAAUAAUAUGGGAGGAUAUCAGAAUGUAUGUAUGUAAUGAGAAGGCCUAAUAU [Mat - Same State 1 - Mod of Eli - D70] (puzzle: Same State 1) = 54.4
GUGGCCUAGGCACAGGAUAUGUUUCUCGUAACAUGAGGAUCACCCAUGUGCCUUUGAGAUUUUAUGCAGAAGGGUGCACGCCACG [JL Atiinbe mod 04] (puzzle: Same State 2) = 20.6
GAGGAACAUGAGGAUCACCCAUGUAGGAUGGGACAAGGAUAUGUAGAUAGCGGAGGAGAGACAGAAGGUGUAGGAA [JR_SS1_Sub053] (puzzle: Same State 1) = 354
GUAUAACAUGAGGAUCACCCAUGUCAACAAAGUCGAGGAUAUGGGCAUAGAUUAUAAGAACCAGAAGGCGAAUAUG [Mat - Same State 1 - Mod of UCT - D42] (puzzle: Same State 1) = 119
GGUCCAGCCUGAGCUGGACAAAAGCAUGUACAUGAGGAUCACCCAUGUUCAUGUACAAGCUUUUUGCUCGUCUUAUA [salish99_208a_r3_045] (puzzle: Sensor for hsa-mir-208a) = 542
AGUGAACAUGAGGAUCACCCAUGUGAGAGGGAUGUAGGAUAUGUAAGGAAGUAAGAUGGAACAGAAGGACAAAGUG [JR_SS!_Sub067] (puzzle: Same State 1) = 38.6
UCUUGGUUUUUGCUCGUUUUUUGUGUUGAACAUGAGGAUCACCCAUGUAUUGUACGGUCCAGUUUAAUAGUGGUCCG [JMF 31] (puzzle: Sensor for hsa-mir-208a) = 25.8
AGAGAACAUGAGGAUCACCCAUGUAGGAUGGGCAUAGGAUAUAGAAGGAUGAGGGAGAAACUAGAAGGAUGAUGGA [JR_SS1_Sub077] (puzzle: Same State 1) = 124
AACAAUCUAUCUGAGGAUAUCAUGAAAUAAACAUGAGGAUCACCCAUGUGCAGGAAAAUUGCAUAUGAGAAGGCAGAUAGAUUGA [salish99_ss2_r3_044] (puzzle: Same State 2) = 37.9
AGUCCAGGCUGACCUGGACAAAAGCAUGUACAUGAGGAUCACCCAUGUCAUGUACAAGCUUUUUGCUCGUCUUAAAA [Mat - hsa-mir-208a - Mod of JL - D16] (puzzle: Sensor for hsa-mir-208a) = 701

Source listed as the supplement of paper PMC9170038.
